Values compiled from the supplement of paper PMC7125110.

B1: glmS ribozyme (parent)
chain: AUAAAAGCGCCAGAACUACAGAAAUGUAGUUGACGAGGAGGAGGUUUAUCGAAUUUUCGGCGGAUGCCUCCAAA

Variants of: B1
test details: self-cleavage kobs at 2500 uM GlcN6P; higher = faster cleavage; RNA array
setup conditions: with glucosamine-6-phosphate
This sample holds only a part of the variants without activity.
readout type: self-cleavage kobs at 2500 uM GlcN6P

For A39G A48C the variant record lists self-cleavage kobs at 2500 uM GlcN6P as 0.000468 s⁻¹

For A12U U54A U69A the variant record lists self-cleavage kobs at 2500 uM GlcN6P as 0.000458 s⁻¹

For C8U G40C C71U the variant record lists self-cleavage kobs at 2500 uM GlcN6P as < 1e-05 s⁻¹

For A52U A53G G59C the variant record lists self-cleavage kobs at 2500 uM GlcN6P as < 1e-05 s⁻¹

For A12C U55A C58A the variant record lists self-cleavage kobs at 2500 uM GlcN6P as 8.77e-05 s⁻¹

For G9U G29C U30C the variant record lists self-cleavage kobs at 2500 uM GlcN6P as < 1e-05 s⁻¹

For C10G U30G A39U G44C A48C the variant record lists self-cleavage kobs at 2500 uM GlcN6P as < 1e-05 s⁻¹

For C34U U46G C68G the variant record lists self-cleavage kobs at 2500 uM GlcN6P as < 1e-05 s⁻¹

For A12C A52U U57A the variant record lists self-cleavage kobs at 2500 uM GlcN6P as 0.000458 s⁻¹

For G13U U47A C71G the variant record lists self-cleavage kobs at 2500 uM GlcN6P as 5.89e-05 s⁻¹

For G32U U69C the variant record lists self-cleavage kobs at 2500 uM GlcN6P as 0.000232 s⁻¹

For G9U G13U A14G G37A G60C C71U the variant record lists self-cleavage kobs at 2500 uM GlcN6P as < 1e-05 s⁻¹

For G9A G38A G51A the variant record lists self-cleavage kobs at 2500 uM GlcN6P as < 1e-05 s⁻¹

For A15C C16A C67U the variant record lists self-cleavage kobs at 2500 uM GlcN6P as 0.000111 s⁻¹

For A42G U55C G66U the variant record lists self-cleavage kobs at 2500 uM GlcN6P as 0.000634 s⁻¹

For G9A A12U U49A the variant record lists self-cleavage kobs at 2500 uM GlcN6P as < 1e-05 s⁻¹

For C8U G9A U45A U69C the variant record lists self-cleavage kobs at 2500 uM GlcN6P as < 1e-05 s⁻¹

For A12C A33G C34U C50A A64U C70G the variant record lists self-cleavage kobs at 2500 uM GlcN6P as 0.00011 s⁻¹

For G41A U55G C71A the variant record lists self-cleavage kobs at 2500 uM GlcN6P as 0.000196 s⁻¹

For U30G G66U the variant record lists self-cleavage kobs at 2500 uM GlcN6P as 0.000147 s⁻¹

For G7C G32U A36U G40U A42U A52G the variant record lists self-cleavage kobs at 2500 uM GlcN6P as < 1e-05 s⁻¹

For U30A G41U U55G G59A U69A the variant record lists self-cleavage kobs at 2500 uM GlcN6P as < 1e-05 s⁻¹

For C8G G9U the variant record lists self-cleavage kobs at 2500 uM GlcN6P as < 1e-05 s⁻¹

For G13A C34A C67U C70G the variant record lists self-cleavage kobs at 2500 uM GlcN6P as < 1e-05 s⁻¹

For U57G C58G the variant record lists self-cleavage kobs at 2500 uM GlcN6P as 5.55e-05 s⁻¹

For A14G A53G the variant record lists self-cleavage kobs at 2500 uM GlcN6P as 0.0146 s⁻¹

For C16U A52G A53G C61U the variant record lists self-cleavage kobs at 2500 uM GlcN6P as < 1e-05 s⁻¹

For C10U U45A the variant record lists self-cleavage kobs at 2500 uM GlcN6P as 2.72e-05 s⁻¹

For G13C A53U the variant record lists self-cleavage kobs at 2500 uM GlcN6P as 4.93e-05 s⁻¹

For U46G C61U A64G the variant record lists self-cleavage kobs at 2500 uM GlcN6P as < 1e-05 s⁻¹

For U31G U56A G66U the variant record lists self-cleavage kobs at 2500 uM GlcN6P as 7.04e-05 s⁻¹

For U57A C70G the variant record lists self-cleavage kobs at 2500 uM GlcN6P as 6.55e-05 s⁻¹

For C10A G35U A48C the variant record lists self-cleavage kobs at 2500 uM GlcN6P as < 1e-05 s⁻¹

For C8U C10U G13U G29C C58U C61A C67A the variant record lists self-cleavage kobs at 2500 uM GlcN6P as 0.000532 s⁻¹

For A39G G40A the variant record lists self-cleavage kobs at 2500 uM GlcN6P as 0.00889 s⁻¹

For G59A C71U the variant record lists self-cleavage kobs at 2500 uM GlcN6P as 4.05e-05 s⁻¹

For U45A A52U C67A the variant record lists self-cleavage kobs at 2500 uM GlcN6P as 8.33e-05 s⁻¹

For A12G U45G the variant record lists self-cleavage kobs at 2500 uM GlcN6P as 0.000197 s⁻¹

For C19U the variant record lists self-cleavage kobs at 2500 uM GlcN6P as 0.0229 s⁻¹

For U55A G62A the variant record lists self-cleavage kobs at 2500 uM GlcN6P as < 1e-05 s⁻¹

For G44U G51U C67G the variant record lists self-cleavage kobs at 2500 uM GlcN6P as < 1e-05 s⁻¹

For U30G C34A the variant record lists self-cleavage kobs at 2500 uM GlcN6P as < 1e-05 s⁻¹

For A14U G66C the variant record lists self-cleavage kobs at 2500 uM GlcN6P as 4.36e-05 s⁻¹

For G40C U69A the variant record lists self-cleavage kobs at 2500 uM GlcN6P as < 1e-05 s⁻¹

For A39G G41U U69A the variant record lists self-cleavage kobs at 2500 uM GlcN6P as 5.05e-05 s⁻¹

For G7A G40A A53G G60C C68U the variant record lists self-cleavage kobs at 2500 uM GlcN6P as < 1e-05 s⁻¹
